assay: blockers of RIG-like receptor reporter activation – cell-based, Sendai virus stimulus, luciferase, 10K MLSCN set, TLR/RLR signaling modifier project, primary screen (AID 602276); conditions: HEK293 RL24 IRF3 luciferase reporter, at 10 µM, stronger effect = higher value;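 further: firefly luciferase from ISG56 promoter only with Renilla not read in this screen; 0% = Sendai virus plus DMSO and 100% = medium plus DMSO without virus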
The source made the active and inactive calls.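 How the source made its calls: active means inhibition at or above 50% at 10 µM; inactive means inhibition below 50%.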
MEASUREMENT KIND: inhibition

{"COMPOUND": "O=c1[nH]c2ccccc2n1CCCN1CCN(C(c2ccccc2)c2ccccc2)CC1", "inhibition": "18.3% (inactive)"}
{"COMPOUND": "Cc1ccccc1CS(=O)(=O)Cc1ccc(C(=O)NCCCN2CCOCC2)o1", "inhibition": "-17.1% (inactive)"}
{"COMPOUND": "COc1cc(C(=O)Nc2ccc3c(c2)C(=O)N(CCC(=O)O)C3=O)cc(OC)c1OC", "inhibition": "12.6% (inactive)"}
{"COMPOUND": "CCOC(=O)c1c(NC(=O)CSc2nnc(-c3ccc(OC)cc3)o2)sc2c1CCC2", "inhibition": "0.872% (inactive)"}
{"COMPOUND": "CN(C)CCSc1nnc2sc3ccccc3n12", "inhibition": "-0.357% (inactive)"}

Q: inhibition lookup needed for CN(C)Cc1c(O)ccc2oc(Cc3ccccc3)cc12 , thanks.
Result: 22.6% (inactive)

Q: Same thing, different compound: CCc1ccc(NS(=O)(=O)c2cccs2)cc1
Result: -6.86% (inactive)

Q: Item: Cc1occc1C(=O)Nc1ccccc1NC(=O)c1ccoc1C
Result: 12.7% (inactive)

###

assay: reduction of polyQ htt aggregates in cells – imaging, exon1htt(103Q)mCFP cells, high-content imaging, primary screen (AID 483); details: exon1htt(103Q)mCFP cell line, aggregate imaging, at 2 µM; measured here: cell count, toxicity;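 further: compound exposure lasted 3 days before fixation; percent of the per-plate median nuclei count of sample wells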
Listed below: nuclei count values for each entry.
I only need the number, in %, no unit after it.

Q: Consider the compound Cc1cnnc2c1-c1nonc1CC2 and give its measured nuclei count.
Result: 109

Q: Then CC(NC(=O)c1ccco1)C(c1cccs1)N1CCN(c2ccc(F)cc2)CC1 (stereo unspecified) ?
Result: 82

Q: Same question, Cn1c(=O)c2c(nc(NCCc3ccccc3)n2CC(=O)NCCc2ccccc2)n(C)c1=O this time
Result: 94.2

Q: Subsequent entry: C=CCOc1nc(N2CCCC2)nc(N2CCCC2)n1
Result: 109

Q: Now the same for Cn1c(SC/C=C/c2ccccc2)nnc1-c1cnccn1
Result: 114

###

molecular target: Voltage-gated potassium channel subunit beta-2 (Rattus norvegicus) (UniProt P62483); experiment: enhancers of rat Kvbeta2 NADPH turnover – biochemical, NADPH fluorescence, primary screen (AID 623); settings: Recombinant KvBeta, NADPH fluorescence decrease slope, 10 min; at 10 µM; stronger effect = lower value;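 further: fluorescence intensity change per second fitted from 20 to 320 s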
Sequence (P62483 whole entry, looked up): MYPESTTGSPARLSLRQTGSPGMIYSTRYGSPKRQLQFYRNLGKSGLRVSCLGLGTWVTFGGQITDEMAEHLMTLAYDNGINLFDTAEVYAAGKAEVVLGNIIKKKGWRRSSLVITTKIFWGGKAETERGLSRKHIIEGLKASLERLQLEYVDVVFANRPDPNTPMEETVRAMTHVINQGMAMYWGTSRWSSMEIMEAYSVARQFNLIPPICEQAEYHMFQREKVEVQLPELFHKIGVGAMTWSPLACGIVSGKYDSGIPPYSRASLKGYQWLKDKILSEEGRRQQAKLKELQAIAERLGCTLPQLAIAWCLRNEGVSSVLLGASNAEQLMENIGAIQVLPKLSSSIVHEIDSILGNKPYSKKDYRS
The following molecules are shown together with reported NADPH fluorescence slope values.
A bare number is all that is needed in reply.

Q: Please look up its NADPH fluorescence slope: Cc1ccc(NC(=O)CSc2nnc(CSc3nc(C)cc(C)n3)n2Cc2ccco2)c(C)c1
Result: 5.9e-05

Q: Another molecule to look at: Cc1ccc(C)c(-n2c(Cc3cc(=O)[nH]c(=O)[nH]3)nnc2SCC(=O)NCc2ccco2)c1
Result: -6.1e-05

Q: CCCCOc1ccc(-c2nnn(CC(=O)NCc3ccco3)n2)cc1 , same question.
Result: -0.000212

Q: Record: CN(C)CCOC(C)(c1ccccc1)c1ccccn1 (centres undefined)
Result: 2.3e-06

Q: Lookup COc1ccc(N2C(=O)CC(N3CCN(S(=O)(=O)c4c(F)cccc4F)CC3)C2=O)cc1OC (centres undefined)
Result: -1.2e-05

Q: Now the same for CCOC(=O)C1CCCN(C(=O)CNS(=O)(=O)c2ccc(Br)s2)C1 (centres undefined)
Result: -5.6e-05

Q: Thanks! And CCCc1cc(=O)n2[nH]cnc2n1 ?
Result: -1.5e-05

Q: CCCCn1nnnc1SCC(=O)Nc1cccc(C)n1 , same question.
Result: -3.8e-05

Q: Param item: COc1ccc(-c2cc(C(=O)NCCc3ccccc3)no2)cc1OC
Result: -2.2e-05

Q: Moving on to the next molecule: O=C(CN1CCN(C(=O)c2ccccc2)CC1)Nc1ncc(Br)cc1Br
Result: 3.1e-05

Q: Also Cc1cc(NC(=O)CSc2nc3ccsc3c(=O)n2NC(=O)c2ccccc2)no1 , if possible.
Result: 9e-05

Q: Same read-out for CC(=O)c1cc(-c2ccccc2)n(CC(=O)N2CCC(N3CCCCC3)CC2)c1C ?
Result: -3.5e-05

Q: Try this molecule too: CCSc1nc2c(c(=O)n1CC)SC(C)C2 (centres undefined)
Result: -0.000126

Q: Also need CN(C)/C=C1\N=C(c2cccs2)OC1=O , thanks.
Result: -4e-05

Q: // same read-out, input: CNC(=O)CN(c1cc(C)ccc1OC)S(=O)(=O)c1ccc(C)cc1
Result: -1.4e-05

Q: Repeat with CCn1cc(C(=O)NCC2COc3ccccc3O2)c2cc(OC)c(OC)cc2c1=O (centres undefined)
Result: -6.7e-05

Q: Note, next up: Cc1ccc(S(=O)(=O)Cc2ccc(C(=O)NCCCN3CCN(C)CC3)o2)cc1
Result: 1.7e-05

Q: What do we get for COc1cccc2c(=O)c3c(cnn3C)n(C)c12 ?
Result: 3.1e-05

Q: Also, CCCCCOc1ccc(Cl)cc1CN1CCOCC1 please.
Result: -2.1e-05

Q: Here is the next molecule: O=C1CS/C(=N\C(=O)N2c3ccccc3Sc3ccccc32)N1
Result: -5.6e-05

Q: Field entry: Cc1nnc(NS(=O)(=O)c2ccc(N)cc2)s1
Result: -3.2e-05

Q: Now consider Cc1cnnc2c1-c1nonc1CC2 .
Result: 3.9e-05

Q: Another molecule: Cc1ccc(-c2nnc(-c3ccc(Br)cc3)o2)o1
Result: -3e-05

Q: Follow-up entry: Cc1nc(C)c(C(=O)C2=C(O)C(=O)N(CCN3CCOCC3)C2c2cccnc2)s1 (centres undefined)
Result: -0.000101
